# measurement.protocol: growth inhibition, single agent or in combination, cell-based, chromothripsis tumors, cisplatin or BGB combos (AID 1671449);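 note: cells exposed for 96 hours; 0% = vehicle DMSO and 100% = killing by high DMSO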
# condition.set: LFS_MB_P medulloblastoma cells, measured here: combination with BGB IC40, at 0.05 µM
reported.property: inhibition (%)
Note: unit % is implicit; provide only the numeric part.

# compound, inhibition, %
records = [
    ("O=C(CCCCCCNC(=O)c1cnc(N(c2ccccc2)c2ccccc2Cl)nc1)NO", -0.542),
    ("O=C(/C=C/c1ccc(CN(CCO)CCc2c[nH]c3ccccc23)cc1)NO", -42.5),
    ("CCCCc1nc2cc(/C=C/C(=O)NO)ccc2n1CCN(CC)CC", -21.7),
    ("COc1ccc(C(=O)C2CCN(CC(=O)N(Cc3nc4c(c(=O)[nH]3)COCC4)CC3CC3)CC2)cc1", -55.1),
    ("CN(C)C/C=C/C(=O)Nc1ccc(C(=O)Nc2cccc(Nc3ncc(Cl)c(-c4c[nH]c5ccccc45)n3)c2)cc1", 7.86),
    ("O=C(COc1cccc2c(=O)[nH]ccc12)c1ccccc1", -53.7),
]

The record that follows has no inhibition shown yet.
Which inhibition is reported for this compound? CS(=O)(=O)c1ccc(-c2nnc(/C=C/c3nnc(-c4ccc(C#N)cc4)o3)n2-c2ccccc2Cl)nc1
30.7

###

compounds and their reported inhibition
# measurement.protocol: growth inhibition, single agents and combos, HTB85, cell-based, BGB or cisplatin IC20 combos, synergistic combos for chromothripsis tumors (AID 1671453);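 note: cells exposed for 96 hours before readout; 0% = vehicle DMSO and 100% = high DMSO killing control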
# condition.set: HTB85 osteosarcoma cells, drug combinations, single agent, at 5 µM, stronger effect = higher value
Note: unit % is implicit; provide only the numeric part.

Look over these answered cases.
# compound, unit.of.measure, inhibition
rows = [
    ("CC(C)OC(=O)[C@H](C)N[P@](=O)(OC[C@H]1O[C@@H](n2ccc(=O)[nH]c2=O)[C@](C)(F)[C@@H]1O)Oc1ccccc1", "%", 7.57),
    ("O=C(COc1cccc2c(=O)[nH]ccc12)c1ccccc1", "%", -11.8),
    ("COc1ccc(-c2nc(N3CCOCC3)c3sc(CN(C)c4ncc(C(=O)NO)cn4)cc3n2)cn1", "%", 99.9),
]

The record that follows has no inhibition shown yet.
Which inhibition is reported for this compound? COc1ccc(C(=O)C2CCN(CC(=O)N(Cc3nc4c(c(=O)[nH]3)COCC4)CC3CC3)CC2)cc1
15.4

###

# measurement.protocol: growth inhibition of DIPG cells – cell-based, MIPE5.0 library, qHTS (AID 1347068);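 for IC50: cells exposed to compound for 48 hours before viability readout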
# condition.set: SU-DIPG-XXV viability
Inconclusive results are not listed. Activity calls are given as the source filed them. The limit is not given here; nearly all actives have IC50 up to about 30 µM.
Please reply with one of these outcomes: active, inactive

As a guide, the following entries are already answered.
# compound, label
records = [
    ("CC(C)c1cnn2c(NCc3ccccc3)cc(N[C@@H](CO)[C@H](O)CO)nc12", "active"),
    ("CC[C@H](Nc1ncnc2nc[nH]c12)c1nc2cccc(F)c2c(=O)n1-c1ccccc1", "inactive"),
]

Hey, what did the test say about Nc1ncnc2c1nc(Cl)n2[C@@H]1O[C@H](CO)[C@@H](O)[C@H]1O ?
inactive

Then this compound: CCN(CC)CCn1c(=O)c(Cc2ccc(OC)cc2)nc2ccccc21
inactive

Then this compound: CN1CCCN(C(=O)c2cccc(-c3ccc(/C=C4/C(=O)Nc5ccc(Cl)cc54)o3)c2)CC1
active

Then this compound: COc1cc2nccc(Oc3ccc(NC(=O)Nc4cc(C)on4)c(Cl)c3)c2cc1OC
active

Then this compound: COc1cccc(Nc2c(C(N)=O)cnc3c(C)cc(S(=O)(=O)c4cccc(C(=O)N(C)C)c4)cc23)c1
inactive

Then this compound: COc1ccc(-c2c(-c3ccc(O)cc3O)n[nH]c2C)cc1
inactive

Then this compound: O=C(/C=C/c1ccc2ccc(C(F)(F)F)cc2n1)c1ccncc1
active

Then this compound: COC(=O)c1ccc2c(C(=Nc3ccc(N(C)C(=O)CN4CCN(C)CC4)cc3)c3ccccc3)c(O)[nH]c2c1
active
